# Test system: WEEV replicon
# procedure-text: microbe, parasite or virus in culture
# Format: cell-based, Western equine encephalitis virus
# run-parameters: Western equine encephalitis virus; read-out: Activity (% control LUC) 10 μM
reported-metric: activity at 10 µM (%)
Answer format: numeric, % implied, no suffix.

Solved cases (3 shown):
{"columns": ["structure", "reported-metric", "readout-number"],
 "data": [
  ["O=C(c1cc2ccccc2n1Cc1ccc(F)cc1)N1CCC(CN2CCCCC2)CC1", "activity at 10 µM", 69.9],
  ["CN(C)C(=O)C1CCN(C(=O)c2cc3ccccc3n2Cc2ccc(Cl)cc2)CC1", "activity at 10 µM", 51.9],
  ["O=C(c1cc2ccccc2n1Cc1ccc(Cl)cc1)N1CCC(C(=O)N2CCCCC2)CC1", "activity at 10 µM", 65.4]
]}

activity at 10 µM reading for "O=C(c1cc2ccccc2n1Cc1ccc(F)cc1)N1CCN(Cc2ccccc2)CC1" : 73.8

Data origin, for the record: patent US8846684B2
